study.system: NTCP M290T/I291V (NTCP→mAsbt) (Homo sapiens, UniProt Q14973, I291V/M290T)
Construct: stably transfected with the full open reading frames of human NTCP, ASBT, SOAT, OATP1B1, OATP1B3, OATP2B1, and murine Asbt (mAsbt); expressed in transfected cells; host or cells: HEK293, stably transfected
Sequence (Q14973 whole entry M290T/I291V): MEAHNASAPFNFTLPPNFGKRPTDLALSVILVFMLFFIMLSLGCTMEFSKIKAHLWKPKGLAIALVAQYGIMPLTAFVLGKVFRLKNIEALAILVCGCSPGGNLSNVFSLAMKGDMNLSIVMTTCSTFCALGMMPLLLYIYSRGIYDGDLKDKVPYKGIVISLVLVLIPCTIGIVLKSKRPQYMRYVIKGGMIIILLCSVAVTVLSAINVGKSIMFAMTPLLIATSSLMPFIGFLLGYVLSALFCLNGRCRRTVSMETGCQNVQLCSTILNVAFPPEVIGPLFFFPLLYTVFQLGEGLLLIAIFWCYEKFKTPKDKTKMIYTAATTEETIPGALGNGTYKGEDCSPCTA
protocol: [3H]TC transport and inhibition assay, NTCP→mAsbt mutant in HEK293 cells
Format: cell-based
reported.conditions: 1 μM [3H]TC, 10 min
assay.endpoint: Inhibition curves and AUC of NTCP→mAsbt mutant compared to wild-type NTCP

compound="CCCCC1(CCCC)CS(=O)(=O)c2ccc(N(C)C)cc2[C@@H](c2ccc(OCCCC[N+]34CCN(CC3)CC4)cc2)[C@H]1O [SC-435]" recorded_value="still inactive"
compound="CCCC[C@]1(CC)CS(=O)(=O)c2cc(CNC(CC(=O)O)CC(=O)O)c(OC)cc2[C@@H](c2ccccc2)N1 [linerixibat]" recorded_value="still inactive"

---

study.system: ASBT S294T/I295V (ASBT→mAsbt) (Homo sapiens, UniProt Q12908, I295V/S294T)
Construct: stably transfected with the full open reading frames of human NTCP, ASBT, SOAT, OATP1B1, OATP1B3, OATP2B1, and murine Asbt (mAsbt); expressed in transfected cells; host or cells: HEK293, stably transfected
Sequence (Q12908 whole entry S294T/I295V): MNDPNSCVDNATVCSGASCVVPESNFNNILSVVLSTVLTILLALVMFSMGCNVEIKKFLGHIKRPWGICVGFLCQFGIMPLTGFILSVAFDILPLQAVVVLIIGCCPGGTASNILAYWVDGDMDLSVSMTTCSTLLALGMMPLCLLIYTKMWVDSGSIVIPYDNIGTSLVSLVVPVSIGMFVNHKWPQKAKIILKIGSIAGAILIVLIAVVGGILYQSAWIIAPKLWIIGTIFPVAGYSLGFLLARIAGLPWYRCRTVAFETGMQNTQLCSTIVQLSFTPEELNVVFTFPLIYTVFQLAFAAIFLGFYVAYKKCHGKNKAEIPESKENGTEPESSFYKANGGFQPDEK
protocol: [3H]TC transport and inhibition assay, ASBT→mAsbt mutant in HEK293 cells
Assay type: cell-based
reported.conditions: 1 μM [3H]TC, 10 min; AUC combined from two experiments
Method: Amplification was performed on a peqSTAR XS PEQLAB PCR cycler (Peqlab) with Pfu DNA polymerase (M774A; Promega) in 18 cycles under the following conditions: initial denaturation for 2 min at 95°C, denaturation for 30 s at 95°C, annealing for 1 min at 55°C, extension for 8 min and 30 s at 72°C, final elongation for 10 min at 72°C and final hold at 4°C. […]
assay.endpoint: Inhibition curve/AUC of ASBT→mAsbt mutant compared to wild-type ASBT

smiles_repr=CCCCC1(CCCC)CN(c2ccccc2)c2cc(SC)c(OCC(=O)N[C@@H](C(=O)NCC(=O)O)c3ccccc3)cc2S(=O)(=O)C1 recorded_value="not different"
smiles_repr=CCCCC1(CCCC)CN(c2ccccc2)c2cc(SC)c(OCC(=O)N[C@@H](C(=O)N[C@@H](CC)C(=O)O)c3ccc(O)cc3)cc2S(=O)(=O)N1 recorded_value="not different"
